Kindly state Papp for each of the entries shown.
# procedure.details: Apparent permeability of the compound in human Caco2 cells
# Type: ADME, cell-based
# test.conditions: caco-2
Give bare numbers, in ×10⁻⁶ cm/s.

Give measured Papp for every item shown.
1. CCCNC[C@@H]1C[C@@]1(C(=O)N(C)Cc1ccc(F)cc1)c1ccc(Cl)c(Cl)c1
2. CN(Cc1ccc(F)cc1)C(=O)[C@@]1(c2ccc(Cl)c(Cl)c2)C[C@H]1CN1CCN(C(=O)CN2CCCCC2)CC1
3. CN(Cc1ccc(F)cc1)C(=O)[C@@]1(c2ccc(Cl)c(Cl)c2)C[C@H]1CN1CCN(C(=O)CN2CCCC2)CC1
4. CN(C)C(=O)CCN1CCN(C[C@@H]2C[C@@]2(C(=O)N(C)Cc2ccc(F)cc2)c2ccc(Cl)c(Cl)c2)CC1
5. CN(Cc1ccccc1)C(=O)[C@@]1(c2ccc(Cl)c(Cl)c2)C[C@H]1CN1CCC(NC(N)=O)(c2ccccc2)CC1
6. COC(=O)NC1(c2ccccc2)CCN(C[C@@H]2C[C@@]2(C(=O)N(C)Cc2ccccc2)c2ccc(Cl)c(Cl)c2)CC1
7. CC(C)NC[C@@H]1C[C@@]1(C(=O)N(C)Cc1ccc(F)cc1)c1ccc(Cl)c(Cl)c1
8. CN(Cc1ccccc1)C(=O)[C@@]1(c2ccc(Cl)c(Cl)c2)C[C@H]1CN1CCC(NS(C)(=O)=O)(c2ccccc2)CC1

A)
1: 5.4; 2: 2.9; 3: 5.7; 4: 28; 5: 0.6; 6: 0.4; 7: 11; 8: 0.1

###

Target sequence: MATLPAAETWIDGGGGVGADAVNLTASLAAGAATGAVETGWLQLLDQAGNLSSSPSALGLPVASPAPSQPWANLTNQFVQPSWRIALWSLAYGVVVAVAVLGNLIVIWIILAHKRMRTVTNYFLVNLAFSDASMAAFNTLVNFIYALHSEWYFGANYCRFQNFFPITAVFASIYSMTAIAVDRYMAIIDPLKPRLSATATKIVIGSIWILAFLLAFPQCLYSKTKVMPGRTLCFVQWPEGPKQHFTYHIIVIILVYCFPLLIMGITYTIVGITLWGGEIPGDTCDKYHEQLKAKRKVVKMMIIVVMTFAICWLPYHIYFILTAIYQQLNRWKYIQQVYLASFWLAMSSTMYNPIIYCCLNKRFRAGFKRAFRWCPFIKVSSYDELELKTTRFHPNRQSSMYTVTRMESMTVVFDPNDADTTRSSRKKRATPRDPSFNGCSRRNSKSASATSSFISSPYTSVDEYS
readout.kind: Ki (nM)
Give bare numbers, in nM.

{"compound": "CC(=O)NC1(c2ccccc2)CCN(CC2CC2(C(=O)N(C)Cc2ccsc2)c2ccc(Cl)c(Cl)c2)CC1 (racemic)", "Ki [nM]": 14}

Give measured Ki for every item shown.
1. CC(=O)NC1(c2ccccc2)CCN(C[C@@H]2C[C@@]2(C(=O)N(C)Cc2ccc(F)cc2)c2ccc(Cl)c(Cl)c2)CC1
2. CC(=O)NC1(c2ccccc2)CCN(C[C@@H]2C[C@@]2(C(=O)N(C)Cc2ccc(F)cc2)c2cccc(C#N)c2)CC1
3. CC(=O)NC1(c2ccccc2)CCN(C[C@@H]2C[C@@]2(C(=O)N(C)Cc2ccc(F)cc2)c2ccc(C#N)cc2)CC1

A)
5.8
1900
270

Give measured Ki for every item shown.
1. COc1ccc(CN(C)C(=O)C2(c3ccc(Cl)c(Cl)c3)CC2CN2CCC(NC(C)=O)(c3ccccc3)CC2)c(OC)c1 (racemic)
2. CC(=O)NC1(c2ccccc2)CCN(CC2CC2(C(=O)N(C)Cc2cc(Cl)cc(Cl)c2)c2ccc(Cl)c(Cl)c2)CC1 (racemic)
3. CN(C)C(=O)NC1(c2ccccc2)CCN(C[C@@H]2C[C@@]2(C(=O)N(C)Cc2ccccc2)c2ccc(Cl)c(Cl)c2)CC1

A)
1. 5.9
2. 23
3. 2.8
